assay.target: ATP-dependent translocase ABCB1 (Homo sapiens)
Sequence (P08183 whole entry): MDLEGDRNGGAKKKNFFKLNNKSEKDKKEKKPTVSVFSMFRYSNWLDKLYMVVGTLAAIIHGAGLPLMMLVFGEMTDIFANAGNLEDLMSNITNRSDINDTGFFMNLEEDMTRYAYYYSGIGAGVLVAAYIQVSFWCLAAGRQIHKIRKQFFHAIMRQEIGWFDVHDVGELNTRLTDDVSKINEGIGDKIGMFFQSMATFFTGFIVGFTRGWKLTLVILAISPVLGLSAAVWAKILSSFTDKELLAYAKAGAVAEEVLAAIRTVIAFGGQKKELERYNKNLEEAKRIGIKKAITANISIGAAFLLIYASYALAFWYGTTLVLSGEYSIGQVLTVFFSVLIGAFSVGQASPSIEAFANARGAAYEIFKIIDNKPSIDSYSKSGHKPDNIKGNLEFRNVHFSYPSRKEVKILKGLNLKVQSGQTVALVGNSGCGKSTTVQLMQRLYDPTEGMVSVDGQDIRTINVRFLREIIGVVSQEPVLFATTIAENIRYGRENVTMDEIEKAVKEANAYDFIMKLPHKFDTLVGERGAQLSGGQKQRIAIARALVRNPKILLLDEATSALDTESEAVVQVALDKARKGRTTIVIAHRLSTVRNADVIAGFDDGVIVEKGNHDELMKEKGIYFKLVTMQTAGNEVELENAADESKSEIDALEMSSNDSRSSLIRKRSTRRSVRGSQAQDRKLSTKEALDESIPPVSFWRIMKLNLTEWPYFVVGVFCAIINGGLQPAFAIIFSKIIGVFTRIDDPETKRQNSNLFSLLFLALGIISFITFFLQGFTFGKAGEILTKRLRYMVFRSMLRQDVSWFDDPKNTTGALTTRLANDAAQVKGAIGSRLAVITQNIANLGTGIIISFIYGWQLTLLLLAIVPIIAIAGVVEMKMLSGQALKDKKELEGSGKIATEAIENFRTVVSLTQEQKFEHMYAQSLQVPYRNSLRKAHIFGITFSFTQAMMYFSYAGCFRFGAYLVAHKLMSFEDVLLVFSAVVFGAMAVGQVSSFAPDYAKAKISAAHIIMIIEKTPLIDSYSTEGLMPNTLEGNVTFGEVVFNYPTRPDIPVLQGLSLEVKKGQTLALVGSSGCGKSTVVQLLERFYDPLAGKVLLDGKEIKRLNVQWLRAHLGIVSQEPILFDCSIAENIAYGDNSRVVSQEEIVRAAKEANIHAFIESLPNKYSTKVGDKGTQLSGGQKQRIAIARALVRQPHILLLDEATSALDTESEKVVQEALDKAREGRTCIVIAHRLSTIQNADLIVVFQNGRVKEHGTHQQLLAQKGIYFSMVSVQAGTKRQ
observed.property: IC50 (µM)
// return numeric value only (unit: µM, not printed)

Prompt line: Record request: IC50 value, item O=C1NCCN1CCN1CCC(c2cn(-c3ccc(F)cc3)c3ccc(Cl)cc23)CC1 [SERTINDOLE]
Response line: 6.5

Where do the numbers come from? From ChEMBL document CHEMBL1777785.
